All values here come from patent US20260124221A1.

# METHOD: Pharmacokinetics after single intramuscular administration in female Beagle dogs (Example 19)
# Type: in vivo
# STUDY CONDITIONS: female, beagle, dog, plasma, im, 17 mg/kg, Compound I 50 mg/mL, 17 mg/kg IM, mean ± SD, read-out: AUClast of Compound I in plasma
METRIC: AUC(0-t) (ng·h/mL)

[[record]]
compound = "C[C@]12CC[C@@H]3c4ccc(OP(=O)(O)O)cc4C[C@@H](CCC[S+]([O-])CCCC(F)(F)C(F)(F)F)[C@H]3[C@@H]1CC[C@@H]2O (stereo partly shown) [Compound I]"
metric = "AUC(0-t)"
unit_text = "ng·h/mL"
recorded_number = 4220


###

# METHOD: Pharmacokinetic study in female Beagle dog, 169.5 mg/mL composition (Example 24)
# Format: in vivo
# STUDY CONDITIONS: dog, plasma; female Beagle dogs; Compound I 169.5 mg/mL, 17 mg/kg IM, two sites; mean ± SD
METRIC: Cmax (ng/mL)

[[record]]
molecule = "C[C@]12CC[C@@H]3c4ccc(OP(=O)(O)O)cc4C[C@@H](CCC[S+]([O-])CCCC(F)(F)C(F)(F)F)[C@H]3[C@@H]1CC[C@@H]2O (stereo partly shown)"
unit_text = "ng/mL"
recorded_number = 322


###

# METHOD: Pharmacokinetics after single intramuscular administration in female Beagle dogs (Example 19)
# Assay type: in vivo
# STUDY CONDITIONS: female, beagle, dog, plasma, im, 17 mg/kg, Compound I 50 mg/mL, 17 mg/kg IM, mean ± SD
METRIC: Tmax (min)

[[record]]
compound = "C[C@]12CC[C@@H]3c4ccc(OP(=O)(O)O)cc4C[C@@H](CCC[S+]([O-])CCCC(F)(F)C(F)(F)F)[C@H]3[C@@H]1CC[C@@H]2O (stereo partly shown)"
unit_text = "min"
recorded_number = 49.8


###

# METHOD: Pharmacokinetics after single intramuscular administration in female Beagle dogs (Example 19)
# Format: in vivo
# STUDY CONDITIONS: female, beagle, dog, plasma, im, 17 mg/kg, Compound I 50 mg/mL, 17 mg/kg IM, mean ± SD, read-out: AUCinf—obs of Compound I in plasma
METRIC: AUC(0-inf) (ng·h/mL)

[[record]]
molecule = "C[C@]12CC[C@@H]3c4ccc(OP(=O)(O)O)cc4C[C@@H](CCC[S+]([O-])CCCC(F)(F)C(F)(F)F)[C@H]3[C@@H]1CC[C@@H]2O (stereo partly shown) [Compound I]"
unit_text = "ng·h/mL"
recorded_number = 4260


###

# METHOD: in vivo
# STUDY CONDITIONS: male, cynomolgus monkey, im, 28.3 mg/kg
METRIC: AUC(0-t) (ng·h/mL)

[[record]]
compound = "C[C@]12CC[C@@H]3c4ccc(OP(=O)(O)O)cc4C[C@@H](CCC[S+]([O-])CCCC(F)(F)C(F)(F)F)[C@H]3[C@@H]1CC[C@@H]2O (stereo partly shown)"
metric = "AUC(0-t)"
unit_text = "ng·h/mL"
recorded_number = 17500


###

# METHOD: Pharmacokinetics after single intramuscular administration in female SD rats (Example 18)
# Format: in vivo
# STUDY CONDITIONS: Sprague-Dawley, rat, plasma, im, 59 mg/kg, Compound I 100 mg/mL, IM two sites, mean ± SD
METRIC: Cmax (ng/mL)

[[record]]
compound = "C[C@]12CC[C@@H]3c4ccc(OP(=O)(O)O)cc4C[C@@H](CCC[S+]([O-])CCCC(F)(F)C(F)(F)F)[C@H]3[C@@H]1CC[C@@H]2O (stereo partly shown)"
recorded_number = 1150


###

# METHOD: Pharmacokinetics after single intramuscular administration in female SD rats (Example 18)
# Type: in vivo
# STUDY CONDITIONS: Sprague-Dawley, rat, plasma, im, 59 mg/kg, Compound I 100 mg/mL, IM single site, mean ± SD
METRIC: Cmax (ng/mL)

[[record]]
molecule = "C[C@]12CC[C@@H]3c4ccc(OP(=O)(O)O)cc4C[C@@H](CCC[S+]([O-])CCCC(F)(F)C(F)(F)F)[C@H]3[C@@H]1CC[C@@H]2O (stereo partly shown)"
recorded_number = 969

